Target: IGFR kinase (Homo sapiens)
Construct: purchased Millipore
Sequence (P08069 31-1367): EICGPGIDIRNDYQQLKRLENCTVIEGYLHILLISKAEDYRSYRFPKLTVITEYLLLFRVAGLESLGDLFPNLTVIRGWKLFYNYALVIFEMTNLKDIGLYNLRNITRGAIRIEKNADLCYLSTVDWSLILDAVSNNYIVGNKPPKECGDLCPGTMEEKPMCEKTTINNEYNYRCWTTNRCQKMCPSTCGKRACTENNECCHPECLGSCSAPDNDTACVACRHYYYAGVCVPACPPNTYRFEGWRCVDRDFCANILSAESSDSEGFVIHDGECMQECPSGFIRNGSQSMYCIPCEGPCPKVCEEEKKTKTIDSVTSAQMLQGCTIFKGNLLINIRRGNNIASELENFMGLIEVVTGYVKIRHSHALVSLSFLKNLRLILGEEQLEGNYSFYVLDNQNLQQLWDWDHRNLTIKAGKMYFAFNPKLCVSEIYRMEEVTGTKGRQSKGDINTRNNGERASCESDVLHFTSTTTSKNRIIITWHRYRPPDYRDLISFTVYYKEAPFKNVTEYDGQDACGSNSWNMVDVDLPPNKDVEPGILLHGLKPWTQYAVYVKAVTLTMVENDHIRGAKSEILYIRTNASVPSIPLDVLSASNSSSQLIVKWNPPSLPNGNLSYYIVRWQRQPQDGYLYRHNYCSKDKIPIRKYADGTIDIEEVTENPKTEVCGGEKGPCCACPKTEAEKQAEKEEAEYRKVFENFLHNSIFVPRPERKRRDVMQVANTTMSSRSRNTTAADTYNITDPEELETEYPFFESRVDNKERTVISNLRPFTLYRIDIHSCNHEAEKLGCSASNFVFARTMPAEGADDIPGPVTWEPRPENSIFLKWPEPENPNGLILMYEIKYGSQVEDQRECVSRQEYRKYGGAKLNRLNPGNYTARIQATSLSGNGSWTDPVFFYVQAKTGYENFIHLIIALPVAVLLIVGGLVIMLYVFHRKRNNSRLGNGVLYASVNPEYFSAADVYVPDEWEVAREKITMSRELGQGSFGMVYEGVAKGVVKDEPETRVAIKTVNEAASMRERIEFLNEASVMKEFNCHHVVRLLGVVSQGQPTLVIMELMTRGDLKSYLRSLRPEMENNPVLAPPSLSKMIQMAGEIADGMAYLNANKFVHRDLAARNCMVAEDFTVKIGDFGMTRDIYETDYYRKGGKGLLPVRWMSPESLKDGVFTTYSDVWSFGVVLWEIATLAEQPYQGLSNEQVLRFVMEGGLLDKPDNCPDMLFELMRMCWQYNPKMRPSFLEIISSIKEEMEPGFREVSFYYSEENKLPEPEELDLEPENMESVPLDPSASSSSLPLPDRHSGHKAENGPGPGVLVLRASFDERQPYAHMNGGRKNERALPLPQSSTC
Test: Enzyme assay (c), IGFR kinase, Caliper LabChip
Type: biochemical
Conditions: 30 nM IGFR kinase, 6 uM ATP, 3 uM peptide mix; read-out: IGFR IC50
value_type: log10 IC50 (log10 of the value in nM)
Transform log10 | Measure IC50 | Unit nM

Determine from records and report log10 IC50 for `COc1cc(C2CCN(C(=O)CO)CC2)ccc1Nc1ncc(Cl)c(-c2cnc3ccccn23)n1`
0.60

Tell me measured log10 IC50 for COc1cc(C2CCN(C(C)=O)C(C)C2)ccc1Nc1ncc(Cl)c(-c2cnc3ccccn23)n1 (stereo not shown) please.
1.23

Please give the documented log10 IC50 of `COc1cc(C2CCN(C(=O)CO)CC2)ccc1Nc1ncc(Cl)c(-c2cnc3ccc(F)cn23)n1`
0.70

Answer with reported log10 IC50 of `COc1cc(N2CC[C@H](O)C2)ccc1Nc1ncc(F)c(-c2cnc3ccccn23)n1`
2.22

Please supply the value of reported log10 IC50 for the item COc1cc(O[C@H]2CCN(C(=O)[C@H](C)O)C2)ccc1Nc1ncc(Cl)c(-c2cnc3ccccn23)n1 [Example 15A]
1.56

Return log10 IC50 (reported value) for this compound: `COc1cc(C2CCN(C(=O)CO)CC2)ccc1Nc1ncc(Cl)c(-c2cnc3c(F)cccn23)n1`
0.90

Recall and state the measured log10 IC50 for `COc1cc(N2CCN(CCO)[C@H](C)C2)ccc1Nc1ncc(C)c(-c2cnc3ccccn23)n1` .
1.63

Return log10 IC50 (reported value) for this compound: `CC(=O)N1CCN(c2cccc(Nc3ncc(Cl)c(-c4cnc5ccccn45)n3)c2C)CC1`
1.08

Give log10 IC50 for the following compound: `COc1cc(C(=O)N2C[C@@H]3C[C@H]2CN3C)ccc1Nc1ncc(Cl)c(-c2cnc3ccccn23)n1`
1.32

Consider the compound `COc1cc(C2CCN(C(=O)N(C)CCO)CC2)ccc1Nc1ncc(Cl)c(-c2cnc3ccccn23)n1` and give its recorded log10 IC50.
0.78

Note log10 IC50 for the compound shown: COc1cc(O[C@H]2CCN(C(=O)C(C)O)C2)ccc1Nc1ncc(Cl)c(-c2cnc3ccccn23)n1 (mixture of isomers)
1.08

Give the measured log10 IC50 for `COc1cc(OC2CN(C[C@H](C)O)C2)ccc1Nc1ncc(Cl)c(-c2cnc3ccccn23)n1`
1.32

Report log10 IC50, nothing else, for this compound: `COc1cc(N2CCN(C)CC2)ccc1Nc1ncc(F)c(-c2cnc3ccccn23)n1`
1.98

Determine from records and report log10 IC50 for `COc1cc(N2CCOCC2)ccc1Nc1ncc(F)c(-c2cnc3ccccn23)n1`
1.75

For the compound `COc1cc2c(cc1Nc1ncc(Cl)c(-c3cnn4ccccc34)n1)NCC2` , report log10 IC50.
2.08

Supply measured log10 IC50 of `COc1cc(N2CC3CN(CCO)CC(C2)O3)ccc1Nc1ncc(C)c(-c2cnc3ccccn23)n1` in your reply.
1.36
